# SYSTEM: GLP-1 receptor (GLP-1R), primary cAMP assay (human, UniProt P43220 24-463)
# RUN_DESCRIPTION: cell-based or functional assay
Starred links: 1 amine or outer side, 2 acyl side, 3 side chain; linkers in the order of their positions; H or OH if unused. Non-standard residues stand in square brackets, D forms with d. Groups on a side chain read outwards from the residue. Primed or numbered codes have the meaning given here. No end group written: not given here. *: point of attachment. γGlu = O=C(O)[C@H](CCC(=O)[*:2])N[*:1]; Palmitoyl = CCCCCCCCCCCCCCCC(=O)*; αMeF = C[C@](N)(Cc1ccccc1)C(=O)O; αMeK = C[C@](N)(CCCCN)C(=O)O; Lauroyl = CCCCCCCCCCCC(=O)*; PEG2′ = not defined here; Aib = CC(C)(N)C(=O)O
ATTRIBUTE_MEASURED: Primary assay EC50 (cAMP) Mean (nM)

(a) H[Aib]EGTFTSDVSK([PEG2′-PEG2′-γGlu-Palmitoyl])FLEGEAAEEFIK([PEG2′-PEG2′-γGlu-Palmitoyl])FVVEGG-NH2 [SEQ ID NO: 245]
(b) H[Aib]EGS[αMeF]TSDVSK([PEG2′-PEG2′-γGlu-Lauroyl])FLEGEAA[αMeK]EFIK([PEG2′-PEG2′-γGlu-Lauroyl])FVVEGG-NH2 [SEQ ID NO: 248]
Inquiry: # min-compare on Primary assay EC50 (cAMP) Mean between a and b Please indicate the selected item by its label.
Reply text: b
(b: 0.005 nM, a: 11.2 nM)

Data credit: patent US20200079833A1
